Molecular target: EPHA2 (human)
Conditions: compound 1.0 µM
# maps each entry to its per cent of control

| sample.smiles | per cent of control |
| --- | --- |
| COC(=O)Nc1ccc(-c2nc(N3CCOCC3)c3cnn(C4CCN(C(=O)OC)CC4)c3n2)cc1 | 106% |
| COc1ccc(-c2ccc3c(N4CCOCC4)nc(N4C[C@@H](C)O[C@@H](C)C4)nc3n2)cc1CO | 108% |

Missing value: per cent of control, EPHA2 (human), entry CCC(=O)N1CCN(c2ccc(-n3c(=O)ccc4cnc5ccc(-c6cnc7ccccc7c6)cc5c43)cc2C(F)(F)F)CC1 . Fill in?
120%

* * *

Known per cent of control of a selection of compounds
Biological target: RPS6KA1 KD1 KD2 (human)
Settings: compound 10.0 µM
Form entry: value (%) — number only.

A selection of reference data follows.
| sample.smiles | per cent of control / % |
| --- | --- |
| CCC(=O)N1CCN(c2ccc(-n3c(=O)ccc4cnc5ccc(-c6cnc7ccccc7c6)cc5c43)cc2C(F)(F)F)CC1 | 71 |
| COC(=O)Nc1ccc(-c2nc(N3CCOCC3)c3cnn(C4CCN(C(=O)OC)CC4)c3n2)cc1 | 102 |

Attention now turns to another entry.
# input compound: COc1ccc(-c2ccc3c(N4CCOCC4)nc(N4C[C@@H](C)O[C@@H](C)C4)nc3n2)cc1CO ; wanted: its per cent of control
86
